assayOverview: gradient 5% acetonitrile 3 min, to 50% in 2 min, to 85% in 15 min, held 3 min, 100 µL/min
conditionSummary: column: Zorbax Extend-C18 2.1 x 50 mm; eluents: water / acetonitrile, 0.1% formic acid
# thresholds on RP-LC retention time define classes: range 1 = under 800 s, range 2 = from 800 s up to 900 s, range 3 = 900 s and over

>>> assignedcategory("COc1ccc(Cl)cc1N1CC(c2nc(-c3ccc4c(c3)OCO4)no2)CC1=O (centres undefined)")
"range 3"
>>> assignedcategory("COc1cc(OC)c(NC(=O)N(C)Cc2nc3cc(C(=O)N4CCCC4)ccc3n2C)cc1Cl")
"range 1"
>>> assignedcategory("Cc1occc1-c1nnc(SCC(=O)N2CCCc3ccccc32)o1")
"range 3"
>>> assignedcategory("Cc1cc(C)cc(NC(=O)Cn2nc(N3CCC(C)CC3)c3ccccc3c2=O)c1")
"range 3"
>>> assignedcategory("COc1ccc(NC(=O)CSc2nccc(N3CCCC3)n2)cc1Cl")
"range 1"
>>> assignedcategory("O=C(Cc1cccs1)N1CCC(c2nnc(C(F)(F)F)o2)CC1")
"range 1"
>>> assignedcategory("O=C(NCc1ccccc1Cl)c1c(O)c2cccc3c2n(c1=O)CC3")
"range 3"
>>> assignedcategory("CCC(c1cccs1)N1C(=O)[C@H]2CN(S(=O)(=O)c3cccc(C)c3)C[C@H]2C1=O (some centres undefined)")
"range 3"
>>> assignedcategory("CCCOc1ccc(-c2nc(N3CCCCCC3)c3ccccc3n2)cc1")
"range 3"
>>> assignedcategory("COc1cccc(-c2nnc(NC(=O)c3ccccc3Br)o2)c1")
"range 1"
>>> assignedcategory("CCc1nc2cc3c(cc2n1CC(=O)Nc1cccc(OC)c1)OCCO3")
"range 1"
>>> assignedcategory("Clc1ccc(-c2cc3c(N4CCN(c5ccccn5)CC4)nccn3n2)cc1")
"range 1"
>>> assignedcategory("O=C(CSCc1ccccc1)N1CCC(c2nnc(-c3ccco3)s2)CC1")
"range 2"
>>> assignedcategory("C#CCn1cnc2c(oc3ccccc32)c1=O")
"range 1"
>>> assignedcategory("Cc1sc2cc(C(=O)N3CCN(c4ccccn4)CC3)[nH]c2c1CN1CCCC1")
"range 1"
>>> assignedcategory("CC(C)C(=O)Nc1nnc(SCc2nnc(-c3ccc4c(c3)OCO4)o2)s1")
"range 1"
>>> assignedcategory("O=C(CSc1nnc(CNC(=O)c2ccc(F)cc2)o1)NCc1ccco1")
"range 1"
>>> assignedcategory("Cc1ccc(S(=O)(=O)N2C(=O)CCC2C(=O)NC2CCCC2)cc1C (centres undefined)")
"range 2"
>>> assignedcategory("CCOC(=O)c1ccc(NC(=O)CCc2ccc3nc(CC)[nH]c3c2)cc1")
"range 1"
>>> assignedcategory("Cc1ccccc1OCc1nc(-c2cccc(-c3ccn[nH]3)c2)no1")
"range 3"
>>> assignedcategory("Cc1cc(C)cc(OCC(=O)N(Cc2ccc(Br)o2)C2CCS(=O)(=O)C2)c1 (centres undefined)")
"range 3"
>>> assignedcategory("CC(C)c1ccc(NC(=O)Cn2nc(N3CCCC3)c3ccccc3c2=O)cc1")
"range 3"
>>> assignedcategory("COc1cccc(NC(=O)C2CCN(c3nc4ccc(-c5cncnc5)nc4s3)CC2)c1")
"range 1"
>>> assignedcategory("Cn1nnc2cc(-c3noc(CNC(=O)c4ccccc4)n3)ccc21")
"range 1"
>>> assignedcategory("CNC(=O)N1CCCC(c2cccc(C(=O)NCc3ccccc3C(F)(F)F)c2)C1 (centres undefined)")
"range 2"
>>> assignedcategory("COc1cccc(-c2nnc(Cc3nc(-c4ccc(C)c(C)c4)no3)o2)c1")
"range 3"
>>> assignedcategory("CC1CCN(C(=O)c2ccc3c(c2)CCCN3S(C)(=O)=O)CC1")
"range 2"
>>> assignedcategory("COc1ccc2[nH]cc(CCNC(=O)c3cn(-c4ccc(F)cc4)nn3)c2c1")
"range 2"
>>> assignedcategory("CC(=O)c1ccc(NC(=O)C2Oc3ccccc3NC2=O)cc1 (centres undefined)")
"range 1"
>>> assignedcategory("CCc1nc2cc(-c3noc(-c4ccc(C)c(F)c4)n3)ccc2o1")
"range 3"
